Provenance of the data: the array DNA melting data of Ke et al. (doi:10.1101/2024.01.08.574731)

experimental.protocol: folding enthalpy; higher = less favourable; fluorescence melt of hairpins on a sequencing array, two-state fit
reported.conditions: sodium 0.088 M
I would appreciate it if you labelled entries YES when folding enthalpy is -30 kcal/mol or higher, otherwise NO.

Below are worked cases with known answers.
biosequence: GATCGGAGAACCGATC ((((((....))))))
assigned.category: NO
//
biosequence: GAGTGTGGAAACGCATTC ((.((.(....).)).))
assigned.category: YES
//
biosequence: GAGTCAGGAAACCGACTC (((((.(....).)))))
assigned.category: NO
//
biosequence: GTTAGAGGAAACTCTAAC (((((((....)))))))
assigned.category: NO
//
biosequence: GAATTAGGAAACTAGTTC (((.(((....))).)))
assigned.category: YES

Here is the next item to consider.
Test whether the sequence GATCTTCAAGAAGATC ((((((....)))))) records folding enthalpy of -30 kcal/mol or higher. NO

###

experimental.protocol: melting temperature; fluorescence melt of hairpins on a sequencing array, two-state fit, raised by 9.35 °C to match UV melts
reported.conditions: sodium 0.088 M
measure: Tm (°C)
The figure you give is taken to be in °C; do not add the unit.

biosequence: GATCTACTTTTAGATC ((((((....))))))
Tm [°C]: 39.8
//
biosequence: GGAACAACGAAAGTTTCC (((..(((....))))))
Tm [°C]: 29.9
//
biosequence: GCGTAAGGACGC ((((....))))
Tm [°C]: 49.3
//
biosequence: GCAACAGGAAACCGTTGC (((((.(....).)))))
Tm [°C]: 50.4
//
biosequence: GACACCGCGAAAGCGGTC (((..(((....))))))
Tm [°C]: 35.4
//
biosequence: GGCCGCGGAAACGCGACC ((.((((....)))).))
Tm [°C]: 63.3

Request the reported Tm associated with GATCTATGTTAGATC ((((((...)))))) 41.3

Now the sequence GATCACTGTGTGATC ((((((...)))))) 61.7

Now consider GTAGAAGGAAACTTCTGC (.(((((....))))).) . 39

Let us now turn to GATCCTCTAAGGATC ((((((...)))))) 54.3

Same thing, different sequence: GCTAGGGGAAACCCTGGC ((.((((....)))).)) 53.4

Another sequence to check: GATCAGGGCGCTGATC ((((((....)))))) 55.4

Now this one: GTACTGGCGAAAGCCTAC (((..(((....)))))) 26.3

How about GATCCCAATTGGGATC ((((((....)))))) ? 61.5

For GAGTCCGAAAGGAGTCTC ((((((....)))..))) then? 54.5

Another sequence to look at: GGTACTCGAAAGAGCACC (((.(((....))).))) 50.5

Record: GATGGCGAAAGCCAATC ((((((....))).))) 50.7

Try this sequence next: GCTTGCGGAAACGTAAGC ((((.((....)).)))) 52.5

Consider next the sequence CGTAGCGGAAACGCAACG (((.(((....))).))) in the same way. 53

Would you kindly repeat that for GGCGGATCGAAAGATGCC (((..(((....)))))) ? 46.1
